Here's what we have: pKi numbers for UniProt:P35372.
Sequence (P35372 whole entry): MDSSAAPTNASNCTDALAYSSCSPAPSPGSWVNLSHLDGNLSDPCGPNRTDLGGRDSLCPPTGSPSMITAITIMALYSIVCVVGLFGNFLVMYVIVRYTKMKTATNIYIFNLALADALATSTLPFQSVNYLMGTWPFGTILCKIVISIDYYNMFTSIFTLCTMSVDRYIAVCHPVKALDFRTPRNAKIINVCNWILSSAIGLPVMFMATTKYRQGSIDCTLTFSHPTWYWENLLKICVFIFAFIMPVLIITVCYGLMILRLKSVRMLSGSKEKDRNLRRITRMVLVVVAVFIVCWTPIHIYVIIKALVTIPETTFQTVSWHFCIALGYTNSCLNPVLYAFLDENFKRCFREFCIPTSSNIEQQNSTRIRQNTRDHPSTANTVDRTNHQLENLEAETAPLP
pKi: −log10 of the molar value.
Measure: pKi

{"Smiles Text": "C[C@H]1CN2CCN(Cc3cccc4ccccc34)C[C@H]2C[C@@]1(C)c1cccc(O)c1", "System Under Test": "UniProt:P35372", "Observed Result": 8.46}
{"Smiles Text": "C[C@H]1CN2CCN(Cc3ccoc3)C[C@H]2C[C@@]1(C)c1cccc(O)c1", "System Under Test": "UniProt:P35372", "Observed Result": 7.92}
{"Smiles Text": "C[C@H]1CN2CCN(Cc3ccsc3)C[C@H]2C[C@@]1(C)c1cccc(O)c1", "System Under Test": "UniProt:P35372", "Observed Result": 8.52}
{"Smiles Text": "C[C@H]1CN2CCN(Cc3ccc(Cl)cc3)C[C@H]2C[C@@]1(C)c1cccc(O)c1", "System Under Test": "UniProt:P35372", "Observed Result": 7.77}

Every entry's value here was drawn from ChEMBL document CHEMBL1137297.
